Where do the numbers come from? From PubChem BioAssay.

Molecular target: Neurogenic locus notch homolog protein 2 (Homo sapiens) (UniProt Q04721)
Sequence (Q04721 whole entry, looked up): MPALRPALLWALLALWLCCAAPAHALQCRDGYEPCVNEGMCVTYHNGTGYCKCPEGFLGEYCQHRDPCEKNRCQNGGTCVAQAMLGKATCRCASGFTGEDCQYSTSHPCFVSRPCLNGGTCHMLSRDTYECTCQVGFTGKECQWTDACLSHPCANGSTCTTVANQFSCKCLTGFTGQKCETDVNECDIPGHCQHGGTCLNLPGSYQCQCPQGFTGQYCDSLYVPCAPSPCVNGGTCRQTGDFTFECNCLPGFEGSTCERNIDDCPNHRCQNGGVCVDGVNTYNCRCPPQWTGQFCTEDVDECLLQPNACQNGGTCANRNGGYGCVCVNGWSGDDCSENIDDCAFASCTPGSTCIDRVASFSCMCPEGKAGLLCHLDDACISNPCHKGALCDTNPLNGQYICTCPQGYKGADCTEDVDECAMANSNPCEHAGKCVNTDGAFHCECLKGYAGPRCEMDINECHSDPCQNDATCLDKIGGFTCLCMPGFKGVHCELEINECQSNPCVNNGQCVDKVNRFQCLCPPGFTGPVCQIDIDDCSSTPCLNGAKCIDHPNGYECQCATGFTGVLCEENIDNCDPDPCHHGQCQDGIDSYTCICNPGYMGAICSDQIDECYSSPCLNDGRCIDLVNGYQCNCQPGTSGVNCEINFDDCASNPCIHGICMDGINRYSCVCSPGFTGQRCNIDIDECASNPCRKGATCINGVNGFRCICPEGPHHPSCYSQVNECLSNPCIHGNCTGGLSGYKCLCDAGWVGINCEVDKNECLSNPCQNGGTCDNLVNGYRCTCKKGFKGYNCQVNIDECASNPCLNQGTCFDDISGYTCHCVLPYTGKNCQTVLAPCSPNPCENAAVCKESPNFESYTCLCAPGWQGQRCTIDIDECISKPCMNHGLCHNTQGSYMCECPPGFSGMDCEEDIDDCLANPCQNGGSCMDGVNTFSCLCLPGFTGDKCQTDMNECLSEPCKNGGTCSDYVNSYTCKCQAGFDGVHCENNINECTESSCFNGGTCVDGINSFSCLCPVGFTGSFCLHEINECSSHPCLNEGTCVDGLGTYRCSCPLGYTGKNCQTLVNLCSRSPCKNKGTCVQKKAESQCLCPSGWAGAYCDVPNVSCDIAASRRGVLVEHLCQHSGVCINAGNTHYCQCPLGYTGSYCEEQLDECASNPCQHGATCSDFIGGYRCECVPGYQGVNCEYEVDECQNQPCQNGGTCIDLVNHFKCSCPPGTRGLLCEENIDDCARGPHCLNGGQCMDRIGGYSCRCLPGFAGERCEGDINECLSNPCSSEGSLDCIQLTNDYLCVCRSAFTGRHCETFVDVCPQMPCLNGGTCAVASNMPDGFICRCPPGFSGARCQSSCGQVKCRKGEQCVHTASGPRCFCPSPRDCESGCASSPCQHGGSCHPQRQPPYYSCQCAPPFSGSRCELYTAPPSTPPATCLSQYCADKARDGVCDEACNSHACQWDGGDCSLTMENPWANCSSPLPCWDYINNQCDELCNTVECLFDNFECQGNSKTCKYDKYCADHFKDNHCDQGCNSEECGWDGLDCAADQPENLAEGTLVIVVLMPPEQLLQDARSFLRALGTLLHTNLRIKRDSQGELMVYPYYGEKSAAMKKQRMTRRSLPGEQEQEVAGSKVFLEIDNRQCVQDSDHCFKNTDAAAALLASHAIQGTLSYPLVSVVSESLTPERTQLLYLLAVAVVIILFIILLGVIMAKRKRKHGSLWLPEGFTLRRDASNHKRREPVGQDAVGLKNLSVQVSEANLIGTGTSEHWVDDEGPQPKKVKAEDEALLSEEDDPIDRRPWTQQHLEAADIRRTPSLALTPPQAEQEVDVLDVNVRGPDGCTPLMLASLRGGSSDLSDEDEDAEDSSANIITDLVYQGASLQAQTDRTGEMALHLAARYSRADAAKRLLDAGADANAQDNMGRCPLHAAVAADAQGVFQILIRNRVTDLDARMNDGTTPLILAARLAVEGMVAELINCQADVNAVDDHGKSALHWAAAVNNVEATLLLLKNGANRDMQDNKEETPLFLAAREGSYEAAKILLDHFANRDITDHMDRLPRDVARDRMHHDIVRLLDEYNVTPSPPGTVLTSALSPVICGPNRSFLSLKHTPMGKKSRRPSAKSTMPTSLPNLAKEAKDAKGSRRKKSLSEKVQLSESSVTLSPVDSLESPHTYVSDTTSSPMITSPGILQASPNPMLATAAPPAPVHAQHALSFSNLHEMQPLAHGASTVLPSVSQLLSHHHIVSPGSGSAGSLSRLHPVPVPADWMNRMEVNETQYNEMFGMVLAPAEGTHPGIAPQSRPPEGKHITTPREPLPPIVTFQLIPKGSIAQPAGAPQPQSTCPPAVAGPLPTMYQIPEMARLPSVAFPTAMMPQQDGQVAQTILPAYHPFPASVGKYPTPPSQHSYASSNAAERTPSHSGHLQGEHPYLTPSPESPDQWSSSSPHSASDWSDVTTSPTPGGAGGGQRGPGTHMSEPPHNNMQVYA
Experiment: Notch2 binders on small-molecule microarrays, primary screen, biochemical, small-molecule microarray, 635 nm fluorescence, stem cell growth factors (AID 1073)
Settings: Notch2 binding, higher = more signal
I would appreciate it if you labelled entries Met when composite z-score is 0.4 or higher, otherwise Not met.

Hi, just wondering whether COC(=O)[C@@]1(Cc2ccccc2)[C@H]2c3cc(C(=O)N(C)C)n(Cc4cc(C)n(C)n4)c3C[C@H]2CN1C(=O)c1ccccc1 shows composite z-score of 0.4 or higher.
Met

What about CCN(CC)c1ccc(N2CC=CC34O[C@@H]5C=CCCOC(=O)C5[C@H]3C(=O)N(CCCCCO)[C@@H]4C2=O)cc1 (stereo not given in full) ?
Not met

Another: CCOC(=O)C1=CCC(C(C)(C)C)N(S(=O)(=O)c2ccc(C)cc2)C1 (stereo not given)
Met

# iterate: O=C1O[C@@H](c2ccccc2)[C@@H](c2ccccc2)N2[C@@H](c3ccc(OCCO)cc3)[C@]3(C(=O)Nc4ccccc43)[C@@H](C(=O)Nc3nc4ccccc4s3)[C@H]12
Met

Similarly, O=C1N(CCS(=O)(=O)c2ccccc2)Cc2ccccc2C[C@]12N=C(c1ccc(OCCCO)cc1)O[C@@H]2c1ccccc1 ?
Met

Also check C=CCOC(=O)[C@@H]1[C@H]2C(=O)O[C@H](c3ccccc3)[C@H](c3ccccc3)N2[C@H](c2ccc(OCCOC(=O)[C@@H]3C[C@@H]4C(=O)N[C@@H](Cc5ccccc5)C(=O)N4[C@@H]3c3cccc(OCCO)c3)cc2)[C@@]12C(=O)Nc1ccc(I)cc12
Met

What do we get for CCCCC=C[C@@H](NC(=O)c1cccs1)c1ccccc1 ?
Met

And then COC(=O)c1ccc(OC)c(/C=C\CC(OC(C)=O)c2ccccc2)c1 (stereo not given) , what is it?
Met

Proceed to COCCOC(=O)N1C(=O)[C@@]2(c3cc(C#CCC(C(=O)OC)C(=O)OC)ccc31)[C@H](c1ccc(O)cc1)N1[C@H](c3ccccc3)[C@H](c3ccccc3)OC(=O)[C@H]1[C@@H]2C(N)=O
Met

What do you have for C=C(CCCC)C(=O)CC[C@H](OC(=O)c1cccnc1)c1cccc(OCCO)c1 ?
Not met

Continue with CCOC(=O)C1=CC[C@@H](c2ccccc2Cl)N(S(=O)(=O)c2ccc(C)cc2)C1
Met

Quick one: COCC(=C=CC[C@@H](O)c1ccc(CO)o1)CCO
Not met

Next compound up: O=C(CS)NCCCCCCNC(=O)[C@@H]1C[C@@H]2C(=O)N3CCC[C@H]3C(=O)N2[C@@H]1c1ccc(O)cc1
Not met

Please give the result for CCCCC(O)C1C=CC2C(=O)N(C3CCCCC3)C(=O)C2N1Nc1ccc(OC)cc1 (stereo not given) too.
Met

----------
Target: Calmodulin-1 (Homo sapiens)
Experiment: calcium-bound CALM1 binders on microarrays, profiling panel, artefact control for SMM control-protein annotation, biochemical, small-molecule microarray, Cy5-labelled CALM1, plus calcium (AID 1112);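 note: score merges spot fluorescence with signal to noise from triplicate slides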
Settings: Cy5-CALM1 binding fluorescence, higher = more signal
Provide the recorded composite z-score for the entries that follow.
Reply with just the number.

Returns the measured composite z-score for the input compound. Input: CC(c1ccccc1)C(O)C1C=CC2C(=O)NC(=O)C2N1Nc1ccccn1 (stereo unspecified)
-0.487

Entry CC(=O)NCCCC[C@@H]1NC(=O)[C@H]2C[C@@H](C(=O)NCCCCCC[N+](C)(C)C)[C@@H](c3cccc(OCCO)c3)N2C1=O please
-0.34

Same question, COCCOC(=O)N1C(=O)[C@@]2(c3ccccc31)[C@H](C(=O)Nc1nc3ccccc3s1)[C@H]1C(=O)O[C@H](c3ccccc3)[C@H](c3ccccc3)N1[C@@H]2c1ccc(OCCO)cc1 this time
0.773

Another compound to check: CC=CC(O)C1C=CC2C(=O)N(c3ccccc3)C(=O)C2N1Nc1ccc(C(C)C)cc1 (stereo unspecified)
0.138

Lookup COCCOC(=O)N1C(=O)[C@@]2(c3cc(C#CCNC(N)=O)ccc31)[C@H](c1ccc(OCCO)cc1)N1[C@H](c3ccccc3)[C@H](c3ccccc3)OC(=O)[C@H]1[C@@H]2C(=O)N1CCc2cc(OC)c(OC)cc2C1
0.273

// next record [N-]=[N+]=NCc1ccccc1C[C@]1(C(=O)O)N=C(c2ccc(OCCCO)cc2)O[C@H]1c1ccccc1
0.671

Can you handle COc1ccc(C#Cc2ccc3c(c2)[C@]2(C(=O)N3)[C@H](C(=O)NC[C@H](O)c3ccccc3)[C@H]3C(=O)O[C@H](c4ccccc4)[C@H](c4ccccc4)N3[C@@H]2c2ccccc2OCCO)cc1 next?
0.243

Queued: COc1ccc([Si](C)(C)[C@H]2[C@H](CCn3cc(CCO)nn3)O[C@@]3(C(=O)N(Cc4ccc(N5CCOC5=O)cc4)c4ccccc43)[C@@H]2C)cc1
0.0117

What about this compound? C#CCN(C(/C=C/c1ccccc1)CO)C(C(=O)O)c1ccccc1 (stereo unspecified)
-0.707

Also C[C@]1(C(=O)NCc2ccccc2)c2ccccc2C(=O)N(Cc2cc(F)cc(C(F)(F)F)c2)[C@H]1c1ccc(CO)cc1 , if possible.
0.173

Okay, and O=C1C2C=CC(C(O)c3ccc(F)cc3)N(Nc3ccccc3)C2C(=O)N1c1ccccc1 (stereo unspecified) ?
0.619

Query CCOC(=O)C[C@H]1[C@H](OC(=O)c2ccccc2-c2ccccc2)[C@@H](NC(=O)Cc2ccc(OC)cc2)c2cc(OCCCO)ccc2N1C(=O)c1ccccc1 next
-0.317

Input C=C[C@@H](COC(C)=O)N(Cc1ccc([N+](=O)[O-])cc1)S(=O)(=O)c1ccc(Br)cc1
0.729

Input CC(C)NC(=O)[C@@H]1c2ccccc2C(=O)N(Cc2ccccc2Cl)[C@H]1c1ccc(CO)cc1
0.29

Can you handle COc1ccc(CCNC(=O)[C@@]2(c3ccc([N+](=O)[O-])cc3)CC(=O)N(CC34CC5CC(CC(C5)C3)C4)[C@@H]2c2ccc(CO)cc2)cc1 next?
0.084

Item: COCCOC(=O)N1C(=O)[C@@]2(c3cc(C#CCNC(N)=O)ccc31)[C@H](C(=O)N1CCN(c3ncccn3)CC1)[C@H]1C(=O)O[C@H](c3ccccc3)[C@H](c3ccccc3)N1[C@@H]2c1ccccc1OCCO
0.264

----------
Target: Alpha-bungarotoxin (Bungarus multicinctus)
Assay: alpha-bungarotoxin binders on microarray, profiling panel, artefact control for SMM control protein annotation, biochemical, small-molecule microarray, Alexa647 label, 635/667 nm fluorescence (AID 1117)
Conditions: alpha-BTX-A647 binding fluorescence, higher = more signal
assay-readout: composite z-score
Field format: numeric only.

Please report the recorded composite z-score for CCOC(=O)C[C@H]1[C@H](OC(=O)c2ccc(C(=O)c3ccccc3)cc2)[C@@H](NC(=O)C2CCCCC2)c2cc(OCCCO)ccc2N1C(=O)c1ccccc1 .
0.745

What do we get for CN(C)CCCCNC(=O)[C@H]1C[C@H]2C(=O)N[C@@H](Cc3ccccc3)C(=O)N2[C@H]1c1ccc(O)cc1 ?
1.55

Next entry: CN(C)C(=O)[C@]1(CCC(=O)OC(C)(C)C)N=C(c2ccc(OCCCO)cc2)O[C@@H]1c1ccccc1N=[N+]=[N-]
1.36

Query CCOC(=O)C1=C[C@@H](CC)N(S(=O)(=O)c2ccc(C)cc2)[C@H]1c1ccccc1 next
0.54

----------
Biological target: Carbonic anhydrase 2 (Homo sapiens) (UniProt P00918)
Assay: CAII small-molecule binders, profiling panel, biochemical, small-molecule microarray, Alexa647-labelled CAII (AID 1122)
Conditions: CAII-A647 binding fluorescence, higher = more signal
Give composite z-score for every item shown.
Keep the answer to the number alone.

Find composite z-score (Carbonic anhydrase 2 (Homo sapiens) (UniProt P00918)) for the entry CC(C)c1ccc(NN2C(C(O)c3cccc(O)c3)C=CC3C(=O)N(c4ccccc4)C(=O)C32)cc1 (stereo not drawn)
0.798

Same question for COC(=O)C(CC#Cc1ccc2c(c1)[C@]1(C(=O)N2)[C@H](C(=O)NC[C@H](O)c2ccccc2)[C@H]2C(=O)O[C@H](c3ccccc3)[C@H](c3ccccc3)N2[C@@H]1c1ccc(OCCO)cc1)C(=O)OC please.
0.556

Record: CCOC(=O)C[C@H]1[C@H](OC(=O)c2ccccc2-c2ccccc2)[C@@H](NC(=O)c2ccc3ccccc3c2)c2cc(OCCCO)ccc2N1C(=O)c1ccc2ccccc2n1
0.124

Next record, please: CCCCC=C[C@@H](NC(=O)c1ccc(C(=O)OC)cc1)c1ccccc1
0.235

Try this molecule next: COCCOC(=O)N1C(=O)[C@@]2(c3cc(C#CC4(O)CCCCCC4)ccc31)[C@H](C(=O)N1CCCCCCC1)[C@H]1C(=O)O[C@H](c3ccccc3)[C@H](c3ccccc3)N1[C@@H]2c1ccccc1OCCO
0.452

For CC(C)N1C(=O)[C@@]2(c3ccc([N+](=O)[O-])cc3)CC(=O)N(CC34CC5CC(CC(C5)C3)C4)[C@@H]2c2ccc(CO)cc21 then?
-0.531

Same read-out for O=C1OCCC=C[C@H]2OC34C=CCN(Cc5ccccc5)C(=O)[C@H]3N(CCCCCO)C(=O)[C@@H]4C12 (stereo partly drawn) ?
0.763

Entry C=CCC(OC(C)=O)[C@@H]1[C@@H](N(Cc2ccc(-c3ccccc3)cc2)C(=O)Cc2ccc(F)cc2)c2cc(OCCCO)ccc2N1C(=O)c1ccc2ccccc2n1 (stereo partly drawn) please
-0.161

Follow-up entry: NC(=O)NCC#Cc1ccc2c(c1)[C@]1(C(=O)N2)[C@H](C(=O)N2CCCCCCC2)[C@H]2C(=O)O[C@H](c3ccccc3)[C@H](c3ccccc3)N2[C@@H]1c1ccc(OCCO)cc1
0.336

How about Cc1ccccc1C(O)C1C=CC2C(=O)N(C)C(=O)C2N1N1CCCCC1 (stereo not drawn) ?
0.793

Request: NC(=O)NCC#Cc1ccc2c(c1)[C@]1(C(=O)N2)[C@H](C(=O)NC[C@H](O)c2ccccc2)[C@H]2C(=O)O[C@H](c3ccccc3)[C@H](c3ccccc3)N2[C@@H]1c1ccc(O)cc1
0.501

// query: O=C1OCC=C[C@H]2OC34C=CCN(c5ccc(Cl)cc5)C(=O)[C@H]3N(CCCCCCO)C(=O)[C@@H]4[C@@H]12 (stereo partly drawn)
0.978

And CCOC(=O)C[C@H]1[C@H](OC(=O)Cc2ccc3c(c2)OCO3)[C@@H](NC(=O)C2CCCCC2)c2cc(OCCCO)ccc2N1C(=O)Cc1ccc(OC)cc1 ?
0.231
